EC50 values, listed per item
Tested on: Human immunodeficiency virus 1
Procedure Text: Antiviral activity against HIV1 expressing reverse transcriptase K103N/Y181C mutant infected in human MT4 cells assessed as protection against virus-induced cytotoxicity after 5 days by MTT assay
Assay type: functional, organism-based
Condition Label: Human immunodeficiency virus 1, MT4, 120 h
Where a name gives a salt, the structure may show the parent alone.

Molecule	EC50
O=C1Nc2ccc(Cl)cc2[C@@](C#CC2CC2)(C(F)(F)F)O1	0.57 µM
COc1nc(Nc2c(C)cc(C)cc2C)nc(NC2CCN(C(=O)c3ccc([N+](=O)[O-])cc3)CC2)n1	> 25.2 µM
CC(C)Nc1cccnc1N1CCN(C(=O)c2cc3cc(NS(C)(=O)=O)ccc3[nH]2)CC1 [DELAVIRDINE MESYLATE]	> 36.2 µM
CNc1nc(Nc2c(C)cc(C)cc2C)nc(NC2CCN(Cc3ccc([N+](=O)[O-])cc3)CC2)n1	≥ 2.6 µM
Cc1cn([C@H]2C[C@H](N=[N+]=[N-])[C@@H](CO)O2)c(=O)[nH]c1=O	0.0086 µM
COc1nc(Nc2c(C)cc(C)cc2C)nc(NC2CCN(C(=O)c3ccccc3)CC2)n1	> 28.8 µM
COc1nc(Nc2c(C)cc(C)cc2C)nc(NC2CCN(Cc3ccc([N+](=O)[O-])cc3)CC2)n1	≥ 6.1 µM
CNc1nc(Nc2c(C)cc(C)cc2C)nc(NC2CCN(C(=O)c3ccc([N+](=O)[O-])cc3)CC2)n1	> 33.2 µM

###

Procedure Text: Cytotoxicity against human MT4 cells after 5 days by MTT assay
Type: cell-based
Structures can show the parent of a compound that is named as a salt.
Here the recorded CC50 at 120 h is given for each entry.

Molecule	Relation Operator	CC50 at 120 h (µM)
COc1nc(Nc2c(C)cc(C)cc2C)nc(NC2CCN(C(=O)c3ccccc3)CC2)n1	=	28.8
O=C1Nc2ccc(Cl)cc2[C@@](C#CC2CC2)(C(F)(F)F)O1	>	6.3
CNc1nc(Nc2c(C)cc(C)cc2C)nc(NC2CCN(Cc3ccccc3C#N)CC2)n1	=	24.7
Cc1cc(C#N)cc(C)c1Oc1nc(Nc2ccc(C#N)cc2)nc(N)c1Br	>	4.6
COc1nc(Nc2c(C)cc(C)cc2C)nc(NC2CCN(Cc3ccccc3C#N)CC2)n1	=	28
COc1nc(Nc2c(C)cc(C)cc2C)nc(NC2CCN(Cc3ccc(C#N)cc3)CC2)n1	=	14.6
COc1nc(Nc2c(C)cc(C)cc2C)nc(NC2CCN(Cc3ccc(F)cc3)CC2)n1	=	24.7
COc1nc(Nc2c(C)cc(C)cc2C)nc(NC2CCN(Cc3ccc([N+](=O)[O-])cc3)CC2)n1	=	15.4
CNc1nc(Nc2c(C)cc(C)cc2C)nc(NC2CCN(Cc3ccc([N+](=O)[O-])cc3)CC2)n1	=	10.2
COc1nc(Nc2c(C)cc(C)cc2C)nc(NC2CCN(C(=O)c3ccc(O)cc3)CC2)n1	=	121
CNc1nc(Nc2c(C)cc(C)cc2C)nc(NC2CCN(C(=O)c3ccc([N+](=O)[O-])cc3)CC2)n1	=	33.2
Nc1ccn([C@H]2CC[C@@H](CO)O2)c(=O)n1	>	94.7
COc1nc(Nc2c(C)cc(C)cc2C)nc(NC2CCN(C(=O)c3ccc([N+](=O)[O-])cc3)CC2)n1	≥	25.2
CNc1nc(Nc2c(C)cc(C)cc2C)nc(NC2CCN(Cc3ccc(OC)cc3)CC2)n1	=	22.1
COc1ccc(CN2CCC(Nc3nc(Nc4c(C)cc(C)cc4C)nc(OC)n3)CC2)cc1	=	19.8
CC(C)Nc1cccnc1N1CCN(C(=O)c2cc3cc(NS(C)(=O)=O)ccc3[nH]2)CC1 [DELAVIRDINE MESYLATE]	>	36.2
CNc1nc(Nc2c(C)cc(C)cc2C)nc(NC2CCN(Cc3ccccc3)CC2)n1	=	28.4
Cc1cn([C@H]2C[C@H](N=[N+]=[N-])[C@@H](CO)O2)c(=O)[nH]c1=O	=	250
COc1nc(Nc2c(C)cc(C)cc2C)nc(NC2CCN(Cc3ccccc3)CC2)n1	=	28.6

###

Procedure Text: Selectivity index, ratio of CC50 for human MT4 cells to EC50 for HIV1 3B
Assay type: toxicity, cell-based
Condition Label: read-out: Ratio CC50/EC50
Where a name gives a salt, the structure may show the parent alone.
Readout Kind: selectivity ratio

Compound	Readout Kind	Relation Operator	Endpoint Result
COc1nc(Nc2c(C)cc(C)cc2C)nc(NC2CCN(Cc3ccccc3)CC2)n1	selectivity ratio	=	2510
COc1nc(Nc2c(C)cc(C)cc2C)nc(NC2CCN(C(=O)c3ccc(O)cc3)CC2)n1	selectivity ratio	=	73
CNc1nc(Nc2c(C)cc(C)cc2C)nc(NC2CCN(Cc3ccccc3)CC2)n1	selectivity ratio	=	3190
CNc1nc(Nc2c(C)cc(C)cc2C)nc(NC2CCN(C(=O)c3ccc([N+](=O)[O-])cc3)CC2)n1	selectivity ratio	=	18
CNc1nc(Nc2c(C)cc(C)cc2C)nc(NC2CCN(Cc3ccc([N+](=O)[O-])cc3)CC2)n1	selectivity ratio	=	1230
CNc1nc(Nc2c(C)cc(C)cc2C)nc(NC2CCN(C(=O)c3ccccc3)CC2)n1	selectivity ratio	=	132
CNc1nc(Nc2c(C)cc(C)cc2C)nc(NC2CCN(Cc3ccc(F)cc3)CC2)n1	selectivity ratio	=	2880
COc1nc(Nc2c(C)cc(C)cc2C)nc(NC2CCN(Cc3cccc(C#N)c3)CC2)n1	selectivity ratio	=	2380
COc1nc(Nc2c(C)cc(C)cc2C)nc(NC2CCN(Cc3ccc(C#N)cc3)CC2)n1	selectivity ratio	=	1600
COc1nc(Nc2c(C)cc(C)cc2C)nc(NC2CCN(C(=O)c3ccc([N+](=O)[O-])cc3)CC2)n1	selectivity ratio	≥	6
COc1nc(Nc2c(C)cc(C)cc2C)nc(NC2CCN(Cc3ccc([N+](=O)[O-])cc3)CC2)n1	selectivity ratio	=	1640
CNc1nc(Nc2c(C)cc(C)cc2C)nc(NC2CCN(C(=O)c3ccc(C(=O)O)cc3)CC2)n1	selectivity ratio	≥	2
CNc1nc(Nc2c(C)cc(C)cc2C)nc(NC2CCN(Cc3ccccc3C#N)CC2)n1	selectivity ratio	=	2500
COc1ccc(CN2CCC(Nc3nc(Nc4c(C)cc(C)cc4C)nc(OC)n3)CC2)cc1	selectivity ratio	=	2040
CNc1nc(Nc2c(C)cc(C)cc2C)nc(NC2CCN(Cc3ccc(C#N)cc3)CC2)n1	selectivity ratio	=	1190
CNc1nc(Nc2c(C)cc(C)cc2C)nc(NC2CCN(C(=O)c3ccc(O)cc3)CC2)n1	selectivity ratio	=	60
CNc1nc(Nc2c(C)cc(C)cc2C)nc(NC2CCN(Cc3cccc(C#N)c3)CC2)n1	selectivity ratio	=	3240
CC(C)Nc1cccnc1N1CCN(C(=O)c2cc3cc(NS(C)(=O)=O)ccc3[nH]2)CC1 [DELAVIRDINE MESYLATE]	selectivity ratio	>	1100

###

System: Human immunodeficiency virus 1
Procedure Text: Antiviral activity against HIV1 expressing reverse transcriptase K103N/Y181C mutant infected in human MT4 cells assessed as protection against virus-induced cytotoxicity after 5 days by MTT assay
Type: functional, organism-based
Condition Label: Human immunodeficiency virus 1, MT4, 120 h
pEC50: −log10 of the molar value.
Here the recorded pEC50 is given for each entry.

Record Smiles	Study Target	pEC50
CNc1nc(Nc2c(C)cc(C)cc2C)nc(NC2CCN(C(=O)c3ccc(C(=O)O)cc3)CC2)n1	Human immunodeficiency virus 1	< 3.59
COc1nc(Nc2c(C)cc(C)cc2C)nc(NC2CCN(C(=O)c3ccc(O)cc3)CC2)n1	Human immunodeficiency virus 1	< 3.92
CNc1nc(Nc2c(C)cc(C)cc2C)nc(NC2CCN(C(=O)c3ccc(O)cc3)CC2)n1	Human immunodeficiency virus 1	< 4.26
COc1nc(Nc2c(C)cc(C)cc2C)nc(NC2CCN(C(=O)c3ccc(C(=O)O)cc3)CC2)n1	Human immunodeficiency virus 1	< 3.83
CNc1nc(Nc2c(C)cc(C)cc2C)nc(NC2CCN(C(=O)c3ccccc3)CC2)n1	Human immunodeficiency virus 1	< 4.51

###

Procedure Text: Selectivity index, ratio of CC50 for human MT4 cells to EC50 for HIV1 3B
Assay type: toxicity, cell-based
Condition Label: read-out: Ratio CC50/EC50
Listing: selectivity ratio of selected compounds
Readout Kind: selectivity ratio

Record Smiles	Endpoint Result
COc1nc(Nc2c(C)cc(C)cc2C)nc(NC2CCN(C(=O)c3ccc(C(=O)O)cc3)CC2)n1	≥ 4
Nc1ccn([C@H]2CC[C@@H](CO)O2)c(=O)n1	> 93
O=C1Nc2ccc(Cl)cc2[C@@](C#CC2CC2)(C(F)(F)F)O1	> 1190
